read-out: Cytochrome P450 3A7 (Homo sapiens); test: LTEA_HepaRG_CYP3A7: Life Technologies and Expression Analysis (LTEA) Assay for CYP3A7 using HepaRG (AID 2283492); conditions: mRNA level, 48 h; actives raise or lower the signal
The source made the active and inactive calls. How the source made its calls: active means hit-call score of the fitted dose curve at least 0.9, where 1 is the maximum; inactive means score below 0.9.
Lab note: assign the record to one of active, inactive

Request: Hi, sorry to bother you, what did the test record for O=P(OCCCl)(OCCCl)OCCCl ?
Response: inactive

Request: Can you handle CCC(C)c1ccc(O)cc1 (configuration not stated) next?
Response: inactive

Request: Then [As]#[In] ?
Response: inactive

Request: # iterate: CCCSC(=O)N(CCC)CCC
Response: inactive

Request: Query CC(C)(C)OOC(C)(C)CCC(C)(C)OOC(C)(C)C next
Response: inactive

Request: Same question, COC(=O)Nc1nc2ccccc2[nH]1 this time
Response: inactive

Request: Also CCCCCOC(=O)c1ccccc1C(=O)OCCCCC ?
Response: inactive

Request: Let us now turn to c1ccc2c(c1)oc1ccccc12
Response: inactive

Request: Would you mind doing CCCCCCCCn1sccc1=O as well?
Response: active

Request: One more compound: CCN(CC)N=O
Response: inactive

Request: # repeat for O=C(O)C1C2CCC(O2)C1C(=O)O (configuration not stated)
Response: active

Request: Quick one: O=C(Oc1ccc(Br)cc1)N1CCN2CCC1CC2
Response: inactive

* * *

read-out: matrix metalloproteinase-1 (MMP1), MMP1 (gene 4312); experiment: LTEA_HepaRG_MMP1: Life Technologies and Expression Analysis (LTEA) Assay for matrix metalloproteinase-1 (MMP1) using HepaRG (AID 2283658); details: mRNA level, 48 h; actives raise or lower the signal
The source made the active and inactive calls. How the source made its calls: active means hit-call score of the fitted dose curve at least 0.9, where 1 is the maximum; inactive means score below 0.9.
The categories you may choose from are active, inactive

Request: Could you kindly confirm the outcome this assay logged for Cc1ccc([N+](=O)[O-])cc1 ?
Response: inactive

Request: And then ClC1=C(Cl)C2(Cl)C3C(Cl)C=CC3C1(Cl)C2(Cl)Cl (configuration not stated) , what is it?
Response: inactive

Request: Same read-out for CO[C@@H]1[C@H](OC(=O)NC(=O)CCl)CC[C@]2(CO2)[C@H]1[C@@]1(C)O[C@@H]1CC=C(C)C ?
Response: inactive

Request: And what about the compound O=[N+]([O-])C(Br)(CO)CO ?
Response: inactive

Request: Same lookup for C1=Cc2cccc3cccc1c23 , please.
Response: inactive

Request: Another: CN(C)C(=O)Nc1ccc(Cl)cc1
Response: inactive

Request: Also Nc1ccc(Cl)cc1N ?
Response: active

* * *

read-out: X-box binding protein 1 (XBP1), XBP1 (gene 7494); assay: LTEA_HepaRG_XBP1: Life Technologies and Expression Analysis (LTEA) Assay for X-box binding protein 1 (XBP1) using HepaRG (AID 2283540); conditions: mRNA level, 48 h; actives raise or lower the signal
Active and inactive are the calls of the source. The calls were made as follows: active = hit-call score of the fitted dose curve at least 0.9, where 1 is the maximum; inactive = score below 0.9.
Use one of these outcomes when replying: true = active, false = inactive

Request: Short answer needed: outcome of this test for CCCSC(=O)N(CCC)CCC ?
Response: false

Request: Okay, and C=CCc1ccc2c(c1)OCO2 ?
Response: false

Request: // query: CCCCCCCCn1sccc1=O
Response: false

Request: Same question, CO[C@@H]1[C@H](OC(=O)NC(=O)CCl)CC[C@]2(CO2)[C@H]1[C@@]1(C)O[C@@H]1CC=C(C)C this time
Response: false

Request: Proceed to CCNS(=O)(=O)C(F)(F)C(F)(F)C(F)(F)C(F)(F)C(F)(F)C(F)(F)C(F)(F)C(F)(F)F
Response: true

Request: Also, CC(C)(OOC(C)(C)c1ccccc1)c1ccccc1 please.
Response: false

Request: Same read-out for c1ccc(N=Nc2ccccc2)cc1 ?
Response: false

Request: Continue with ClC1=C(Cl)C2(Cl)C3C(Cl)C=CC3C1(Cl)C2(Cl)Cl (configuration not stated)
Response: false

Request: Now the compound Nc1ccc(Cl)cc1N
Response: true

Request: Can you check CCCCC(CC)COC(=O)c1ccc(C(=O)OCC(CC)CCCC)c(C(=O)OCC(CC)CCCC)c1 (configuration not stated) next?
Response: false

Request: Can you handle CCOc1cccc(C2(N3CCN(c4ccccc4)CC3)CCC(C)CC2)c1 (configuration not stated) next?
Response: false

Request: One more compound: Nc1ccc(Cc2ccc(N)cc2)cc1
Response: false

Request: Same thing, different compound: COP(=S)(OC)SCN1C(=O)c2ccccc2C1=O
Response: false

Request: What would you report for N#CC(Br)Br ?
Response: false

Request: Please answer likewise for CNC(=O)Oc1cccc2c1OC(C)(C)C2
Response: false

Request: Cool, now Oc1ccc2ccc3cccc4ccc1c2c34
Response: false

Request: Field entry: Nc1ccc(Oc2ccc(N)cc2)cc1
Response: false

Request: What do we get for CN(C)C(=O)Nc1ccc(Cl)cc1 ?
Response: false

Request: // query: Cc1ccc(N)cc1
Response: false

Request: What do we get for OCCCBr ?
Response: false

Request: // next record O=[N+]([O-])c1ccc(Oc2ccc(Cl)cc2Cl)cc1
Response: false

Request: Try COc1cc(C=O)cc2c1[C@H](COC(N)=O)[C@]1(OC(C)=O)ON2C[C@H]2[C@@H]1N2C(C)=O next.
Response: false

Request: Try the compound c1ccc2c(c1)oc1ccccc12
Response: false

Request: Another compound to look at: Cc1cccc(N)c1N
Response: true

Request: Nc1ccc(N=Nc2ccccc2)cc1
Response: true

Request: And N#CC(Br)(Br)C(N)=O ?
Response: false

Request: Quick one: Cc1ccc(N=C=O)cc1N=C=O
Response: false

* * *

assay: CCTE_Shafer_MEA_dev_per_burst_interspike_interval: CCTE's Neural Network Formation Assay for Burst Interspike Interval, Shafer Lab (AID 2284044);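 further: mean spike spacing inside bursts as AUC over recordings on days 5 7 9 12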
Active and inactive are the calls of the source. The calls were made as follows: active = hit-call score of the fitted dose curve at least 0.9, where 1 is the maximum; inactive = score below 0.9.
Respond with a class label; see YES for active, NO for inactive

Request: # lookup: test call for Clc1ccc(C(c2ccc(Cl)cc2)C(Cl)Cl)cc1
Response: YES

Request: How about this molecule: CCCCOC(=O)c1ccccc1C(=O)OCc1ccccc1
Response: NO

Request: Queued: CC(C)(C)C(O)(CCc1ccc(Cl)cc1)Cn1cncn1 (stereo not given)
Response: NO

Request: Moving on to the next molecule: ClC1=C(Cl)[C@]2(Cl)[C@H]3[C@H]([C@@H]4C=C[C@H]3C4)[C@@]1(Cl)C2(Cl)Cl
Response: YES

Request: CC(C)COC(=O)c1ccccc1C(=O)OCC(C)C , same question.
Response: YES

Request: Item: ClC1=C(Cl)C2(Cl)C3C(Cl)C=CC3C1(Cl)C2(Cl)Cl (stereo not given)
Response: NO

Request: Try [O-][Cl+]O next.
Response: NO

Request: Would you kindly repeat that for CN(C)[C@@H]1C(=O)C(C(N)=O)=C(O)[C@@]2(O)C(=O)C3=C(O)c4c(O)cccc4[C@@](C)(O)[C@H]3C[C@@H]12 ?
Response: NO

Request: Repeat for the following molecule: O=P(OCCCl)(OCCCl)OCCCl
Response: NO

Request: Please answer likewise for CNC(=O)Oc1cccc2c1OC(C)(C)C2
Response: NO

* * *

read-out: Interleukin-8 (IL8), CXCL8 (gene 3576); assay: BSK_hDFCGF_IL8: BioMAP Diversity Plus: hDFCGF Assay for Interleukin-8 (IL8) Biomarker Activity (AID 2283058); conditions: primary human foreskin fibroblasts; actives raise or lower the signal
Calls of active or inactive are those of the source. Rule for the calls: active = hit-call score of the fitted dose curve at least 0.9, where 1 is the maximum; inactive = score below 0.9.
I would appreciate it if you answered using one of these outcomes: active, inactive

Request: Assay outcome for CCCCCCCCCCCCCN1CC(C)OC(C)C1 (centres undefined) : what was it?
Response: inactive

Request: Also check [Cl-].[Cl-].[Hg+2]
Response: active

Request: // next record C=CCc1ccc2c(c1)OCO2
Response: inactive

Request: Can you check CCOC(=O)[C@]1(c2ccccc2)Oc2ccccc2[C@@H]1N next?
Response: active

Request: Also check [As]#[In]
Response: inactive

Request: What about O=C(O)C1C2CCC(O2)C1C(=O)O (centres undefined) ?
Response: inactive

Request: Repeat for the following molecule: Cc1cc(N=Nc2ccccc2C)ccc1N
Response: inactive

Request: Check ClCCOCCCl too.
Response: inactive

Request: Further, for CCC[CH2][Sn]([Cl])([CH2]CCC)[CH2]CCC ?
Response: active

Request: Next record, please: OCCCl
Response: inactive

Request: O=C(Oc1ccc(Br)cc1)N1CCN2CCC1CC2 ?
Response: inactive

Request: // query: CC(C)(C)OOC(C)(C)CCC(C)(C)OOC(C)(C)C
Response: inactive

Request: Quick one: CCCCCCCCn1sccc1=O
Response: active

Request: What about [O-][Cl+]O ?
Response: inactive

Request: Thanks! And O=C(Nc1ccccc1)c1ccccc1I ?
Response: inactive

Request: Same read-out for Brc1ccc(Oc2ccccc2)cc1 ?
Response: inactive

Request: Try the molecule ClC1=C(Cl)C2(Cl)C3C(Cl)C=CC3C1(Cl)C2(Cl)Cl (centres undefined)
Response: active

Request: Repeat for the following molecule: CCN(CC)CCO
Response: inactive

Request: Now give it for CCOc1cccc(C2(N3CCN(c4ccccc4)CC3)CCC(C)CC2)c1 (centres undefined) too.
Response: inactive
